- System: U2OS
- measurement.description: Multiplex assay against U2OS
- Assay type: toxicity, cell-based
- recorded.conditions: human, 12 h, 10 µM, compound concentration 10 uM, replicate 1
Population Mitotic Cells (%) strictly under 30% means label 1; at 30% or over means label 0.

Example entries and their recorded answers appear below.
{"columns": ["compound", "category"],
 "data": [
  ["CCCCCCNC(=O)Nc1ccc(S(=O)(=O)Nc2ccc(CCNC[C@H](O)COc3ccc(O)cc3)cc2)cc1", "label 0"],
  ["Nc1nc(CC(=O)Nc2ccc(CCNC[C@H](O)c3ccccc3)cc2)cs1", "label 1"],
  ["COCCn1c(C)c(C)s/c1=N\\C(=O)C1C(C)(C)C1(C)C", "label 1"],
  ["Cc1cc(NC(=O)NCCN2CCC(O)(Cc3ccccc3)CC2)c2ccccc2n1", "label 1"],
  ["CC(C)C[C@H](CO)Nc1nc(S[C@@H](C)c2ccccc2)nc2nc(N)sc12", "label 0"],
  ["CN1C[C@H](C(=O)N[C@]2(C)O[C@@]3(O)[C@@H]4CCCN4C(=O)[C@H](Cc4ccccc4)N3C2=O)C[C@@H]2c3cccc4[nH]cc(c34)C[C@H]21.CS(=O)(=O)O [DIHYDROERGOTAMINE MESYLATE]", "label 1"]
]}

Now look at this one.
## Task I'd appreciate it if you could check whether N[C@](CC1c2ccccc2Oc2ccccc21)(C(=O)O)[C@H]1C[C@@H]1C(=O)O has Population Mitotic Cells (%) smaller than 30%.
## Result label 1

###

- Test system: Fibroblast
- measurement.description: Multiplex assay against human fibroblast
- Type: toxicity, cell-based
- recorded.conditions: 48 h, 10 µM, compound concentration 10 uM, replicate 2
measured.property: Population Tubulin-Different-Phenotype (%)
Numbers only, in %.

{"columns": ["compound", "units.label", "recorded.result"],
 "data": [
  ["Cc1ccc(OCC(O)C(C)NC(C)C)c2c1CCC2.Cl (centres undefined)", "%", 63],
  ["Nc1nc(-c2ccco2)c2cnn(Cc3ccccc3F)c2n1", "%", 51],
  ["CN1CCN2c3ccccc3Cc3ccccc3C2C1.Cl (centres undefined) [MIANSERIN HYDROCHLORIDE]", "%", 37],
  ["COc1cc(OC2CCN(C(C)=O)CC2)ccc1C(=O)N1CCC(N2C(=O)OCc3ccccc32)CC1", "%", 69],
  ["COc1ccc2c(c1OCc1ccccc1)C[C@@H](C(=O)O)N(C(=O)C(c1ccccc1)c1ccccc1)C2", "%", 45]
]}

Please supply Population Tubulin-Different-Phenotype (%) for each of the following items, keeping them in order.
1. O=c1nc2[nH]c3ccccc3nc-2c(=O)[nH]1
2. COCCCN1CCC(NC(=O)c2cc(Cl)c(N)c3c2OCC3)CC1 [PRUCALOPRIDE]
3. Cc1cc(O)c(-c2ccc([C@@H](C)CN(C)C)cc2)c2c1[nH]c(=O)c1sccc12

## Result
1: 51; 2: 57; 3: 85

Param item: CSc1nc(NC2CCCC2)c([N+](=O)[O-])c(NC2CCCC2)n1 ; param system: Fibroblast; output Population Tubulin-Different-Phenotype (%): 60

###

For each entry below, report its Population Tubulin-Different-Phenotype (%) value.
- Tested on: HEK-293T
- measurement.description: Multiplex assay against HEK293T
- Assay type: toxicity, cell-based
- recorded.conditions: human, 48 h, 10 µM, compound concentration 10 uM, replicate 2

Worked cases, answers included:
{"columns": ["compound", "tested.system", "recorded.result"],
 "data": [
  ["COCCn1c(C)c(C)s/c1=N\\C(=O)C1C(C)(C)C1(C)C", "HEK-293T", "24%"],
  ["CN1CCN2c3ccccc3Cc3ccccc3C2C1.Cl (stereo not drawn) [MIANSERIN HYDROCHLORIDE]", "HEK-293T", "11%"],
  ["CCc1nn2c(C)cc(C)nc2c1Cc1ccc(-c2nnc(C3CCNCC3)o2)cc1", "HEK-293T", "26%"],
  ["CCCCC[C@H](O)/C=C/[C@H]1[C@H](O)CC(=O)[C@@H]1CCCCCCC(=O)O [ALPROSTADIL]", "HEK-293T", "14%"],
  ["CCC(=O)OCC(=O)[C@@]1(OC(=O)CC)[C@@H](C)C[C@H]2[C@@H]3CCC4=CC(=O)C=C[C@]4(C)[C@@]3(Cl)[C@@H](O)C[C@@]21C [BECLOMETHASONE DIPROPIONATE]", "HEK-293T", "62%"]
]}

Record Population Tubulin-Different-Phenotype (%) for all entries; do not skip any.
1. COC(c1ccccc1)(c1ccccc1)[C@H](Oc1nc(C)cc(C)n1)C(=O)O [AMBRISENTAN]
2. S=C(NCCCc1c[nH]cn1)NCCCN(Cc1ccc(Cl)c(Cl)c1)c1ccc(Br)cn1
3. COCCCN1CCC(NC(=O)c2cc(Cl)c(N)c3c2OCC3)CC1 [PRUCALOPRIDE]

## Result
1. 15%
2. 40%
3. 15%
